Data credit: ChEMBL document CHEMBL2311401

Target: Stromelysin-1 (Homo sapiens) (UniProt P08254)
Sequence (P08254 100-477 limits assumed): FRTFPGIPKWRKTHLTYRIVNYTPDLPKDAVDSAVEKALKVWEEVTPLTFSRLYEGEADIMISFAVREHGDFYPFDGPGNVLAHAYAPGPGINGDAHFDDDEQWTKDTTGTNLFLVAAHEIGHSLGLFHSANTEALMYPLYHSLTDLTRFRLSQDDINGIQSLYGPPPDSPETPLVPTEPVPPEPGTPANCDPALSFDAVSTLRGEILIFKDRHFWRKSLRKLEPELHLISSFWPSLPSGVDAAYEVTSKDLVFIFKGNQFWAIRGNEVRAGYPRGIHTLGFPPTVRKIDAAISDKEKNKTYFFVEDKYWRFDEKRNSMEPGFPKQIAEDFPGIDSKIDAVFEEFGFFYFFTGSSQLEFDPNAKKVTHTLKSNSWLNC
Assay: Inhibition of human MMP3 using Mca-Pro-Leu-Gly-Leu-Dpa-Ala-Arg-NH2 as substrate by spectrophotometry
Activity calls are given as the source filed them. The calls are words filed in the database; no cut-off is given here.
Possible outcomes: active, inactive

- COMPOUND_STRUCTURE_STRING: "NC(=O)[C@H](CCC(=O)O)NC(=O)[C@H](CCC(=O)O)NC(=O)[C@H](Cc1cc(-c2ccc(-c3cccc(Cl)c3)cc2)no1)CP(=O)(O)c1ccc(Br)cc1"
  MEASURED_ON: "Stromelysin-1 (Homo sapiens) (UniProt P08254)"
  CATEGORY_LABEL: "active"
- COMPOUND_STRUCTURE_STRING: "NC(=O)[C@H](CCC(=O)O)NC(=O)[C@H](CCC(=O)O)NC(=O)[C@H](Cc1cc(-c2ccccc2)no1)CP(=O)(O)c1ccc(Br)cc1"
  MEASURED_ON: "Stromelysin-1 (Homo sapiens) (UniProt P08254)"
  CATEGORY_LABEL: "active"
- COMPOUND_STRUCTURE_STRING: "C[C@H](NC(=O)[C@H](C)NC(=O)[C@H](Cc1cc(-c2ccc(-c3cccc(Cl)c3)cc2)no1)CP(=O)(O)c1ccc(Br)cc1)C(N)=O"
  MEASURED_ON: "Stromelysin-1 (Homo sapiens) (UniProt P08254)"
  CATEGORY_LABEL: "inactive"
- COMPOUND_STRUCTURE_STRING: "C[C@H](NC(=O)[C@H](C)NC(=O)[C@H](Cc1cc(-c2ccccc2)no1)CP(=O)(O)c1ccc(Br)cc1)C(N)=O"
  MEASURED_ON: "Stromelysin-1 (Homo sapiens) (UniProt P08254)"
  CATEGORY_LABEL: "active"
